System: Bacillus subtilis
Test: cleaved RNA product abundance (RNA/gDNA barcode ratio) relative to median wild-type variant (ratio to wild type); higher = more accumulation of the downstream cleavage product
Settings: experiment (reporter, strain, medium): exp 8a: truncated aprE reporter, strain BJT201 with 2% xylose (RNase J1 expressed); cleavage site: glnRA (positions -5 to +31 mutated)
readout-name: cleaved RNA product abundance

// solved cases for cleaved RNA product abundance follow
residue-codes	subject-of-test	result
CGACATGTCCCGCTTCTTTCATTAATTCGTTAGCAACTGTTATGCTATATACATTTACCTTTTAAGAGGAGGAAT	Bacillus subtilis	1.05
CGACATGTCCCGCTTCTTTCATTACTCCGTTAGCAACAGTTATGCTATATACATTTACCTTTTAAGAGGAGGAAT	Bacillus subtilis	0.735
CGACATGTCCCGCTTCTTTCATTAATCAGTTAGCAACTATTTTGCTATATACATTTACCTTTTAAGAGGAGGAAT	Bacillus subtilis	1.97

Hi, could you look up cleaved RNA product abundance for each item in my list?
1. CGACATGTCCCGCTTCTTTCATTAATCCGTTAGCAAATGTTTTGCTATATACATTTACTTTTTAAGAGGAGGAAT
2. CGACATGTCCCGCTTCTTTCATTAATCCGTAAGCAACTGTTTTGCTATATACATTTCCCTTTTAAGAGGAGGAAT
3. CGACATGTCCCGCTTCTTTCATTAATCCGCCAGCAACTGTTTTGCTATATAGATTTACCTTTTAAGAGGAGGAAT
4. CGACATGTCCCGCTTCTTTCATTAATCCGTTAGAAACTGTATTGCTATATACATTTACCTTTTAAGAGGAGGAAT
5. CGACATGTCCCGCTTCTTTCATTAATTCGTTAGCAACTGTTTTGTTATATACATTTACCTTTTAAGAGGAGGAAT
6. CGACATGTCCCGCTTCTTTCATTAATCTGTTAGCAACTTTTTTGCTATATACATTTACCTTTTAAGAGGAGGAAT
7. CGACATGTCCCGCTTCTTTCATTAATCCGTTAGCAACTGTTTTGATATATACATATACCTTTTAAGAGGAGGAAT
8. CGACATGTCCCGCTTCTTTCATTAATCCGTTTGCAACTGTTTTGCTATATACATTTACCTTTTAAGAGGAGGAAT

1.2
0.212
0.284
0.321
0.602
0.706
0.572
0.549

Hi, could you look up cleaved RNA product abundance for each item in my list?
1. CGACATGTCCCGCTTCTTTCATTAATCCGTTATCAACTGTATTGCTATATACATTTACCTTTTAAGAGGAGGAAT
2. CGACATGTCCCGCTTCTTTCATTAATCCGTTAGCAACTGTTTTACTATATACATGTACCTTTTAAGAGGAGGAAT
3. CGACATGTCCCGCTTCTTTCATTATTCCGTTAGCAACTGTTTTGCTATATACTTTTACCTTTTAAGAGGAGGAAT
4. CGACATGTCCCGCTTCTTTCATTAATCCGTTAGCAACTGTATTGCTATATACATTTACCCTTTAAGAGGAGGAAT

0.306
0.471
0.815
1.1
